Measured pIC50, listed per entry for reference.
# STUDY_TARGET: recombinant ASK1 (Homo sapiens, UniProt Q99683)
# Construct: purchased Carna Biosciences
# ASSAY_INFO: ASK1 Biochemical Assay (HTRF KinEASE-STK S3)
# CONDITION_SET: ATP 100 μM; read-out: Biochemical Assay IC50
pIC50: −log10 of the molar value.

Cc1cc(N2CCN(c3cccc(-c4nncn4C(C)C)n3)C2=O)ccc1S(C)(=O)=O [Example 1029] = > 7.00

Exam item: Test system recombinant ASK1 (Homo sapiens, UniProt Q99683); read-out pIC50; what value for CC(c1ccc(N2CCN(c3cccc(-c4nncn4C(C)C)n3)C2=O)cc1)N1CCOCC1 (centres unmarked) [Example 1114] ?
Marked response: > 8.00

Exam item: For the record CC(C)n1cnnc1-c1cccc(N2CCN(C)C2=O)n1 [Example 1099] , what value of pIC50 is listed for recombinant ASK1 (Homo sapiens, UniProt Q99683)?
Marked response: > 7.00

Exam item: Hi! What's the reported pIC50 for COCCS(=O)(=O)c1ccc(N2CCN(c3cccc(-c4nncn4C(C)C)n3)C2=O)cc1 [Example 1050] on recombinant ASK1 (Homo sapiens, UniProt Q99683)?
Marked response: > 7.00

Exam item: Record lookup: for recombinant ASK1 (Homo sapiens, UniProt Q99683), what pIC50 belongs to CC(C)n1cnnc1-c1cccc(N2CCN(c3ccc(S(C)(=O)=O)c(F)c3)C2=O)n1 [Example 1038] ?
Marked response: > 7.00

---

# STUDY_TARGET: Human ASK1 (Homo sapiens, UniProt Q99683)
# Construct: expressed in transfected cells; host or cells: HEK293T-AP1
# Sequence (Q99683 whole entry): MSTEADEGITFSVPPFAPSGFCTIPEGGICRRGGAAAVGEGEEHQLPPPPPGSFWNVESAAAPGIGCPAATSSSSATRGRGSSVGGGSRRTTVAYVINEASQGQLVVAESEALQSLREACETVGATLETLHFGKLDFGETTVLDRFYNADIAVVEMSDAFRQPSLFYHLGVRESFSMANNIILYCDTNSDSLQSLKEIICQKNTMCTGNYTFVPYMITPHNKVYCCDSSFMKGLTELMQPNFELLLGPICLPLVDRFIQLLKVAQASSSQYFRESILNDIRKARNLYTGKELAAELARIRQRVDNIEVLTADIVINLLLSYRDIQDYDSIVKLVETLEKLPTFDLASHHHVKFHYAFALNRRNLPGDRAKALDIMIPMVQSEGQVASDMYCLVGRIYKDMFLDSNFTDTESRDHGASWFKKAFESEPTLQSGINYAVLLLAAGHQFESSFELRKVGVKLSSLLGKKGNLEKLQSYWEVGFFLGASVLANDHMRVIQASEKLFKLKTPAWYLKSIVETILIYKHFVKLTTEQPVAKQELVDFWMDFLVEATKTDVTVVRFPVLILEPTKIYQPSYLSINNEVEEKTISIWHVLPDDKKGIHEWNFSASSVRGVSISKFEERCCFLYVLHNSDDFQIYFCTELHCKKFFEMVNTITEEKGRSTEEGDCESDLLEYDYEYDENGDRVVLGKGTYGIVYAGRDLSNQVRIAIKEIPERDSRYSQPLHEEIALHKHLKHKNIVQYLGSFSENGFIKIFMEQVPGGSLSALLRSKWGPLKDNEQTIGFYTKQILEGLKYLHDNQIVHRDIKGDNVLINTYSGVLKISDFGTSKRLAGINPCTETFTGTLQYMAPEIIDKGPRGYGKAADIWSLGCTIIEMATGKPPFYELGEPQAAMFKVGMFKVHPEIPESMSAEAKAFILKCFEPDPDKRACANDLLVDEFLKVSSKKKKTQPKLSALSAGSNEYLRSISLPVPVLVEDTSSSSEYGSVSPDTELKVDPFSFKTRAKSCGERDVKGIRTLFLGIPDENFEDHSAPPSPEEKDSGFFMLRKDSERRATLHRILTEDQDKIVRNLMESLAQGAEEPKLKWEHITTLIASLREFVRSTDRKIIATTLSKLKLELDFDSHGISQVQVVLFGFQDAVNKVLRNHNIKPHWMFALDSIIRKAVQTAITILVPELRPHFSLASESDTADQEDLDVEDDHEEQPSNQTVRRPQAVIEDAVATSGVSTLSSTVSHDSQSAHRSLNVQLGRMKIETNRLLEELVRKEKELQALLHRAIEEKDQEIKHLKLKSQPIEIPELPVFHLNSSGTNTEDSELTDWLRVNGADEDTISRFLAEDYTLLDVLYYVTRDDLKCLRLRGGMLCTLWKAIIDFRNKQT
# ASSAY_INFO: ASK1 Cell Based Assay (phospho p38 read out in hASK1 transfected HEK293T-AP1 cells)
# CONDITION_SET: HEK293T-AP1 cells, 1 mM hydrogen peroxide, phospho p38; read-out: Cell Based Assay IC50
# Procedure: HEK293T-AP1 cells were seeded at a density of 20,000 cells per well in a poly-d-lysine coated 96 well microplate. Next day, cells were transfected with hASK1-pcDNA3.1 vector using lipofectamine 3000. […] Phospho p38 levels in the lysate was detected by using CisbioPhospho-p38 MAPK (Thr180/Tyr182) #64P38PEG.Four microliters of phospho p38 antibodies labelled with europium cryptate and d2 acceptor, were added to the lysate and incubated overnight. […]
OBSERVABLE: IC50

// worked examples, IC50 included
CC(C)n1cnnc1-c1cccc(N2CCN(c3ccc(NS(C)(=O)=O)cc3)C2=O)n1 [Example 1044] = > 1000 nM
CC(C)n1cnnc1-c1cccc(N2CCN(c3ccc(N4CCC(C(=O)N(C)C)CC4)cc3)C2=O)n1 [Example 1097] = < 100 nM
CC1CN(c2ccc(N3CCN(c4cccc(-c5nncn5C(C)C)n4)C3=O)cc2)C(=O)CO1 (stereo not shown) [Example 1076] = > 1000 nM
CC(C)n1cnnc1-c1cccc(N2CCN(c3ccc(N4CCC(O)CC4)cc3)C2=O)n1 [Example 1067] = > 100 nM
CC(C)n1cnnc1-c1cccc(N2CCN(c3ccc(N4CCC(C#N)CC4)cc3)C2=O)n1 [Example 1087] = > 100 nM
CC(C)n1cnnc1-c1cccc(N2CCN(c3ccc4c(ccn4C)c3)C2=O)n1 [Example 1125] = > 1000 nM
CC(C)n1cnnc1-c1cccc(N2CCN(c3cc(-c4ccc(S(C)(=O)=O)nc4)ccc3F)C2=O)n1 [Example 1021] = > 10000 nM
CC(C)n1cnnc1-c1cccc(N2CCN(c3ccc(-n4ccnc4)cc3)C2=O)n1 [Example 1036] = < 1000 nM

Exam item: Would you kindly share the measured IC50 for CC(C)n1cnnc1-c1cccc(N2CCN(c3ccc(N4CCN(C)CC4)cc3)C2=O)n1 [Example 1092] ?
Marked response: > 1000 nM

Exam item: Could you tell me which IC50 is on file for CC(C)n1cnnc1-c1cccc(N2CCN(c3ccc(N4CCC(C#N)C4)cc3)C2=O)n1 (stereo not shown) [Example 1091] ?
Marked response: > 1000 nM

Exam item: Reported IC50 for CC(C)n1cnnc1-c1cccc(N2CCN(c3ccc(S(N)(=O)=O)cc3)C2=O)n1 [Example 1023] : what is it?
Marked response: > 1000 nM
